biological target: SHP1 (Homo sapiens); test: Protein phosphatase inhibition assay, SHP1; settings: read-out: Inhibitory Effect against Phosphatases (IC50) SHP1
Sequence (P29350 whole entry): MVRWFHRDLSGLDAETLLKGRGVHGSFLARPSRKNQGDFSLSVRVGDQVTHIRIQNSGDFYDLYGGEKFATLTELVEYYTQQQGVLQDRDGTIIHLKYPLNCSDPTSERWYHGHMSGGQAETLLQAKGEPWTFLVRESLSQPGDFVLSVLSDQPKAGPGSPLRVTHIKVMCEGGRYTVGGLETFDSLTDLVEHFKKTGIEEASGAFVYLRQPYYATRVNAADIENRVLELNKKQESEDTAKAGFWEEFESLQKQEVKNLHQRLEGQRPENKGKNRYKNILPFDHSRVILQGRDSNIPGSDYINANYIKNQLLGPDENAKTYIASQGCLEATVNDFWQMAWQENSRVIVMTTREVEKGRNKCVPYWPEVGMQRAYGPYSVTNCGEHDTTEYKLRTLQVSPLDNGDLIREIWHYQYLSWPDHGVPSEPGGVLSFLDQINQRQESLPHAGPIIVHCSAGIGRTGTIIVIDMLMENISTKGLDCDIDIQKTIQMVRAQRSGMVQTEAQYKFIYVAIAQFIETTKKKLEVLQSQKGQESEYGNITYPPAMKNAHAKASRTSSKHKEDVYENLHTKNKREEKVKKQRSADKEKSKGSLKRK
pIC50: −log10 of the molar value.
REPORTED ENDPOINT: pIC50

INSERT INTO assay_data (compound, endpoint_value) VALUES
  ('[Na+].[Na+].[Na+].[O]=[V]([O-])([O-])[O-] [Na3VO4, reference compound]', 5.36);

----------
test: Cytotoxicity by CCK-8 method; assay type: cell-based; conditions: human, H1975 lung adenocarcinoma cells, read-out: Cytotoxicity (IC50) H1975 Cell (after 24 h)
REPORTED ENDPOINT: IC50 at 24 h

INSERT INTO results (compound, endpoint_value) VALUES
  ('COc1cc2ccncc2c(O)c1Cc1c(O)cc(O)c2c1[C@@H](C)OC2', '> 80 µM'),
  ('CCCCC(CC)COC(=O)CC[n+]1ccc2cc(OC)c(C)c(O)c2c1 (stereo not drawn)', '> 80 µM'),
  ('COc1cc2ccncc2c(O)c1CC(C)C(=O)O (stereo not drawn)', '> 80 µM'),
  ('COc1cc2ccncc2c2c(C)c(O)c(C)cc12', '> 80 µM'),
  ('COc1cc2ccncc2c(O)c1Cc1c(O)cc(O)c(OC)c1C(=O)C(C)=O', '> 80 µM'),
  ('COc1cc2ccncc2c(O)c1Cc1c(OC)cc2ccncc2c1O', '71.3 µM');
